Taken from patent US20240216357A1.

- system_name: LSD1 (Homo sapiens (Human), UniProt O60341)
- assay_comment: LSD1 enzyme activity detection (HTRF)
- Assay type: biochemical
- measurement_context: HTRF, H3K4me1 substrate; read-out: Inhibition of enzymatic activity of LSD1 IC50
pIC50: −log10 of the molar value. Where a name gives a salt, the structure may show the parent alone.
Threshold rule: pIC50 greater than or equal to 9 is TRUE; below that, FALSE.

As a guide, the following entries are already answered.
INSERT INTO measurements (compound, qualitative_label) VALUES
  ('COc1ccc(-c2c(OC)cc(N3CCC(N)CC3)nc2-c2ccc(C#N)c(F)c2)cc1O [Example 89]', 'TRUE'),
  ('N#Cc1ccc(-c2cc(C(=O)N3C4CCC3CC(N)C4)sc2-c2ccc3cn[nH]c3c2)cc1F (centres unmarked) [Example 203]', 'TRUE'),
  ('COc1cc(-c2c(-c3ccc(C#N)c(F)c3)nc(N3CCC(N)CC3)n3ccnc23)ccc1O [Example 141, formate]', 'FALSE'),
  ('COc1cc(N2CCC(N)CC2)nc(-c2ccc(C#N)c(F)c2)c1-c1cc(O)c(F)c(F)c1 [Example 92]', 'FALSE'),
  ('COc1ccc(-c2c(O)cc(N3CCC(N(C)C)CC3)nc2-c2ccc(C#N)c(F)c2)cc1F [Example 56]', 'FALSE'),
  ('COc1ccc(-c2nc(CN[C@@H]3C[C@H]3c3ccc(F)cc3)cc(C(=O)N3CCC(F)(F)CC3)n2)cc1O [Example 247]', 'FALSE'),
  ('O=C(NC1CCOCC1)c1cc(CN[C@@H]2C[C@H]2c2ccc(F)cc2)nc(-c2ccccc2)n1 [Example 237]', 'FALSE');

For the next question, use this compound.
State whether the measured pIC50 reaches 9, counting equality as reaching it, for COc1ccc(-c2c(-c3ccc(C#N)c(F)c3)nc(N3CCC(N)CC3)n3ccnc23)cc1O [Example 124] TRUE
